Where do the numbers come from? From PubChem BioAssay (NCI).

Tested on: NCI-H226 lung
Test: NCI-60 one-dose screen, 48 h (100 = growth as untreated, 0 = no growth, -100 = all killed)
Settings: 10 µM
Compounds without any hit were thinned out: in the full panel of roughly 83,000, 20% have a hit.
growth for assorted compounds
Number only, in %; omit the unit.

Q) For the record Cc1cc(Nc2ccc(Cl)cc2)nc(NCCCNc2ccnc3cc(Cl)ccc23)n1 , what value of growth is listed for NCI-H226 lung?
A) 102

Q) Likewise for N#Cc1ncc(-c2ccc(C(F)(F)F)cc2)c(NCc2cc(C(F)(F)F)cc(C(F)(F)F)c2)n1 ?
A) 43.8

Q) What do you have for CN(C)c1ccc(Cc2ccc(N(C)C)cc2Cl)c(Cl)c1 ?
A) 89.4

Q) What would you report for COc1cc2cc3c(nc2cc1OC)CCN3Cc1ccc(NC(=O)Nc2ccc(F)cc2F)cc1 ?
A) 79.4

Q) # iterate: O=[P@@]1(c2ccccc2)O[C@H](COCc2ccccc2)[C@@H](OCc2ccccc2)[C@H](OCc2ccccc2)[C@H]1O
A) 59

Q) For Clc1cccc(-c2nc(-c3cccs3)no2)c1 then?
A) 100

Q) And for O=C1/C(=C\c2ccc(F)cc2)CN(C(=O)c2ccc([N+](=O)[O-])cc2)C/C1=C\c1ccc(F)cc1 ?
A) 38.2

Q) Try this compound too: CSc1nn(-c2ccccc2)c2ncnc(Oc3ccccc3)c12
A) 90.6

Q) One more compound: COc1ccc(/C=C2/CN(C(=O)c3ccc(C)cc3)C/C(=C\c3ccc(OC)cc3)C2=O)cc1
A) 82.1

Q) Ok, now NC(=O)c1ccc(-c2cccc3c(=O)nc(N4CCOCC4)oc23)cc1
A) 82.6

Q) // repeat for Clc1ccccc1N=Cc1ccc2c(c1)OCO2 and report
A) 105

* * *

# reported growth; entries follow
System: KM12 colon
Assay: NCI-60 one-dose screen, 48 h (100 = growth as untreated, 0 = no growth, -100 = all killed)
Conditions: 10 µM
About 83,000 compounds went through this panel and 20% of them were active in at least one assay; those are over-represented in the sample as a whole.
Express your answer in %, writing the number without its unit.

Q) Kindly state the measured growth obtained for COc1ccc(-n2c(SCc3cc(OC)c(OC)c(OC)c3)nc3ccc(C)cc3c2=O)cc1 with KM12 colon.
A) 35.4

Q) Quick one: Cn1c(C(N)=O)cc2c1-c1nc(Nc3ccccc3)ncc1CCC2
A) 7.9

Q) Proceed to O=[N+]([O-])c1cccc(-c2ncc(-c3ccc(Cl)cc3Cl)[nH]2)c1
A) 15.7

Q) Next molecule up: O=C(Nc1ccc(Cl)cc1)N1NC(c2ccc(Cl)cc2)C=C1c1ccccc1 (stereo not given)
A) 96.3

* * *

Test system: TK-10 renal
Assay: NCI-60 one-dose screen, 48 h (100 = growth as untreated, 0 = no growth, -100 = all killed)
Details: 10 µM
The panel holds about 83,000 compounds, 20% with a hit somewhere; the sample as a whole holds those more often.
This section presents molecules with their documented growth values.
Answer in %, number only, no unit symbol.

Q) Reported growth for O=C(Nc1cccc(-n2cc(-c3ccncc3)c(-c3cc(O)cc(Cl)c3)n2)c1)c1ccc(N2CCOCC2)c(C(F)(F)F)c1 : what is it?
A) 70.3

Q) Then this molecule: Nc1ccc2c(c1)C1(CCC2)NC(=O)NC1=O (configuration not stated)
A) 109

Q) Follow-up entry: O=C(O)CCCCSc1ncnc2nc[nH]c12
A) 98

Q) What do you get for Cc1cc2c(C)c3cc(C)c(N)cc3nc2cc1N ?
A) -4.14

Q) Also need COc1ccc(-c2csc(NC(=O)CSc3nc(C)c(-c4ccccc4)n3Nc3ccccc3)n2)cc1 , thanks.
A) 86.1

***
Q) I would be grateful if you could share the reported growth for COc1cc(/C=C2\CCCC3=C2N=C2SC=NN2C3c2cc(OC)c(OC)c(OC)c2)cc(OC)c1OC (configuration not stated) .
A) 17.5

Q) Try this molecule next: CC(=O)O[C@]1(C)CC[C@H]2[C@H](CNCCc3ccc(Cl)cc3)C(=O)O[C@@H]2C2=C(C)C(=O)C[C@H]21
A) 97.7

Q) Now consider Cc1ccc(C(=O)N2C/C(=C/c3ccc(F)cc3)C(=O)/C(=C/c3ccc(F)cc3)C2)cc1 .
A) 102

Q) Ok, now CC(C)(C)c1cc(Br)cc(C(C)(C)C)c1O
A) 113

Q) Then O=c1[nH]c2ccc(Cl)cc2c2ccccc12 ?
A) 81

Q) Another molecule to look at: COc1cc2c(cc1OCCCCCCN1CCN(CC(=O)Nc3ccc(Cl)cc3C(=O)c3ccccc3Cl)CC1)N=CC1CCCN1C2=O (configuration not stated)
A) -98.8

Q) Moving on to N#CC1=C(Nc2ccccc2Cl)SC(c2ccccc2O)NC1=O (configuration not stated)
A) 134

Q) What about Clc1ccc(Nc2ccnc(NCCNc3ccnc4cc(Cl)ccc34)n2)cc1 ?
A) -29.9
